# test-system: human α5β3γ2 receptors (α5-GABAA receptor) (Homo sapiens (Human), UniProt P18507+P31644)
# measurement-description: 3H-flunitrazepam competition binding, human α5β3γ2 GABAA receptor
# experimental-conditions: α5-GABAAR Ki, HEK293 cell membranes, 1 nM 3H-flunitrazepam
assay-metric: Ki (nM)

- Cc1nnn(-c2ccc(C(F)F)cc2)c1COc1ccc(N2CCN3[C@@H]4CCC[C@@H]4NC(=O)[C@@H]3C2)nn1: 4.95
- Cc1nnn(-c2ccc(C(F)F)cc2)c1COc1ccc(N2CCN3C4CCCCC4NC(=O)[C@@H]3C2)nn1 (some centres unmarked): 3.17
- CCNC(=O)C12CC(CN(c3ccc(OCc4c(C)nnn4-c4ccc(C(F)F)cc4)nn3)C1)C2: 1.73
- Cc1nnn(-c2ccc(C(F)F)cc2)c1COc1ccc(N2CCN3[C@@H](C2)C(=O)N[C@@H]2CCC[C@@H]23)nn1: 3.13
- Cc1nnn(-c2ccc(C(F)F)cc2)c1COc1ccc(N2CCN(CC3CC3)C(=O)C2)nn1: 1.11

Data credit: patent US20250136581A1
